target: HA of influenza B virus B/Florida/04/2006 (live virus) (influenza B virus B/Florida/04/2006); experiment: cell-based or functional assay
ENDPOINT: VNA titers (µg/mL)
Answers are plain numbers, in µg/mL.

{"BINDER": "CR8059 (antibody, V domains shown) VH: EVQLVQSGAEVKKPGASVRVSCRASGYIFTESGITWVRQAPGQGLEWMGWISGYSGDTKYAQKLQGRVTMTKDTSTTTAYMELRSLRYDDTAVYYCARDVQYSGSYLGAYYFDYWSPGTLVTVSS VL: SYVLTQPPSASGTPGQRVTISCSGSSSNIGTNYVYWYQQFPGTAPKLLIYRSYQRPSGVPDRFSGSKSGSSASLAISGLQSEDEADYYCATWDDSLNGWVFGGGTKLTVL", "UNITS SYMBOL": "µg/mL", "VALUE": 3.23}
{"BINDER": "CR8071 (antibody, V domains shown) VH: QVQLVQSGAEVKKPGASVRVSCRASGYIFTESGITWVRQAPGQGLEWMGWISGYSGDTKYAQKLQGRVTMTKDTSTTTAYMELRSLRYDDTAVYYCARDVQYSGSYLGAYYFDYWSPGTLVTVSS VL: QSVLTQPPSASGTPGQRVTISCSGSSSNIGTNYVYWYQQFPGTAPKLLIYRSYQRPSGVPDRFSGSKSGSSASLAISGLQSEDEADYYCATWDDSLDGWVFGGGTKLTVLR", "UNITS SYMBOL": "µg/mL", "VALUE": 2.12}

Kindly consider the entry below.
IN: Record request: VNA titers value, item CR8031 (antibody, V domains shown) VH: EVQLVESGGGLVQPGRSLRLSCAASGFTFDEYIMHWVRQAPGKGPEWVAGINWKGNFMGYADSVQGRFTISRDNAKNSLYLQMNSLRADDTALYYCAKDRLESSAMDILEGGTFDIWGQGTMVT VL: QSALTQPASVSGSPGQSITISCTGTSSDVGGYNYVSWYQQHPGKAPKLMIYDVSSRPSGVSNRFSGSKSGDTASLSISGLQAEDEADYYCSSYTSSSTHVFGTGTKVTVL
OUT: 0.88

Numbers sourced from patent US20160002318A1.
